The reported numbers originate from PubChem BioAssay AID1159580.

experiment: chemical genetic growth profiling, strain panel (AID 1159580);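 also: tested at 20 µM; growth read once vehicle control cultures reached saturation at 30 °C; 1 = growth at the plate median or of vehicle wells; lower values mean less growth of the strain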; settings: S. cerevisiae deletion strains, growth OD, locus YJL095W, strain BCK1 (second series)
Out of some 5,500 compounds screened, about 2,000 (36%) were called active. Not shown: some 18% with an inconclusive outcome. Rule as the data show it: active = normalized growth mostly below about 0.91 (no sharp cut-off); inconclusive = no clear call, values can overlap the other calls; inactive = mostly above about 0.92. The list shows a part of the results.
Respond only with the outcome that fits, drawn from active, inactive

### Prompt # fetch the recorded call for CCN(CC)CCOC(=O)C1(C2CCCCC2)CCCCC1 here
### Response inactive

### Prompt # fetch the recorded call for O=C(CC(=O)c1ccccc1)c1ccccc1 here
### Response active

### Prompt # fetch the recorded call for COC1CC2CCC(C)C(O)(O2)C(=O)C(=O)N2CCCCC2C(=O)OC(C(C)CC2CCC(O)C(OC)C2)CC(=O)C(C)/C=C(\C)C(O)C(OC)C(=O)C(C)CC(C)/C=C/C=C/C=C/1C (configuration not stated) here
### Response active

### Prompt # fetch the recorded call for O=C(OOC(=O)c1ccccc1)c1ccccc1 here
### Response inactive

### Prompt # fetch the recorded call for CC(=O)Oc1ccc(/C=C/c2cc(OC(C)=O)cc(OC(C)=O)c2)cc1 here
### Response inactive

### Prompt # fetch the recorded call for O=C1NC(O)=NC1(c1ccccc1)c1ccccc1 here
### Response inactive

### Prompt # fetch the recorded call for NC(Cn1ccc(=O)c(O)c1)C(=O)O (configuration not stated) here
### Response inactive

### Prompt # fetch the recorded call for CN(C)CCCN1c2ccccc2CCc2ccc(Cl)cc21 here
### Response inactive

### Prompt # fetch the recorded call for NCC(N)C(=O)c1ccccc1 (configuration not stated) here
### Response inactive

### Prompt # fetch the recorded call for CCC(C)[C@H]1O[C@]2(C=C[C@@H]1C)C[C@@H]1C[C@@H](C/C=C(\C)[C@@H](OC3C[C@H](OC)C(O[C@H]4C[C@H](OC)[C@@H](O)[C@H](C)O4)[C@H](C)O3)[C@@H](C)/C=C/C=C3\CO[C@@H]4[C@H](O)C(C)=C[C@@H](C(=O)O1)[C@]34O)O2 (some centres not stated) here
### Response active

### Prompt # fetch the recorded call for NC(=O)NC(=O)Cc1ccccc1 here
### Response inactive

### Prompt # fetch the recorded call for CC(C)=CCc1c2c(c3occ(-c4ccc(O)cc4)c(=O)c3c1O)C=CC(C)(C)O2 here
### Response active

### Prompt # fetch the recorded call for CC(C)CCCC(C)C1CCC2C3C[C@@H](O)[C@@]4(O)C[C@@H](O)CC[C@]4(C)C3CC[C@]12C (some centres not stated) here
### Response inactive

### Prompt # fetch the recorded call for CC12CCC(=O)C=C1CCC1C2[C@@H](O)CC2(C)C1CC[C@]2(O)C(=O)COP(=O)(O)O (some centres not stated) here
### Response inactive

### Prompt # fetch the recorded call for CC1(C)CC2C1CC[C@]1(CBr)CCC3C(CC(=O)O)C(=O)O[C@@]32C1 (some centres not stated) here
### Response inactive

### Prompt # fetch the recorded call for CCN(CC)CCOCCOC(=O)C1(c2ccccc2)CCCC1 here
### Response inactive

### Prompt # fetch the recorded call for N[C@@H](CCC(=O)N[C@@H](CS)C(=O)NCC(=O)O)C(=O)O here
### Response inactive

### Prompt # fetch the recorded call for O=P1(N(CCCl)CCCl)NCCCO1 (configuration not stated) here
### Response inactive

### Prompt # fetch the recorded call for CC(=O)Oc1ccc(C(c2ccc(OC(C)=O)cc2)c2ccccn2)cc1 here
### Response inactive

### Prompt # fetch the recorded call for CC(C)CCCC(C)[C@H]1CCC2C3CC=C4CC(=O)CC[C@]4(C)C3CC[C@@]21C (some centres not stated) here
### Response inactive

### Prompt # fetch the recorded call for CC(C)CCCC(C)[C@H]1CCC2C3CC=C4C[C@@H](O)CC[C@]4(C)C3CC[C@@]21C (some centres not stated) here
### Response inactive

### Prompt # fetch the recorded call for COc1ccc2cc(CCC(C)=O)ccc2c1 here
### Response inactive

### Prompt # fetch the recorded call for COC(=O)/C(=C1\OC(=O)C(c2ccccc2)=C1O)c1ccccc1 here
### Response inactive

### Prompt # fetch the recorded call for CN(C)[C@@H]1C(=O)C(C(=O)NCN2CCCC2)=C(O)[C@@]2(O)C(=O)C3=C(O)c4c(O)cccc4[C@@](C)(O)[C@H]3C[C@@H]12 here
### Response inactive

### Prompt # fetch the recorded call for CCCOc1ccc2nc(NC(=O)OC)[nH]c2c1 here
### Response inactive

### Prompt # fetch the recorded call for CC1=CC(=O)c2c(O)cccc2C1=O here
### Response active

### Prompt # fetch the recorded call for O=C(OCc1ccccc1)c1ccccc1 here
### Response inactive

### Prompt # fetch the recorded call for CC1=CC(=O)c2ccccc2C1=O here
### Response inactive

### Prompt # fetch the recorded call for CN1CCN(C(=O)OC2c3nccnc3C(=O)N2c2ccc(Cl)cn2)CC1 (configuration not stated) here
### Response inactive

### Prompt # fetch the recorded call for COC(=O)c1c(OC)cc2c(c1C)Oc1c(Cl)c(O)c(Cl)c(C)c1C(=O)O2 here
### Response inactive

### Prompt # fetch the recorded call for COC(=O)c1c(OC)cc2c(c1C)Oc1c(Cl)c(OC(C)=O)c(Cl)c(C)c1C(=O)O2 here
### Response inactive

### Prompt # fetch the recorded call for CC(C)c1ccc2c(c1)CCC1[C@](C)(CN)CCC[C@]21C (some centres not stated) here
### Response inactive

### Prompt # fetch the recorded call for OC[C@H]1O[C@@H](O[C@H]2[C@H](O)[C@@H](O)[C@@H](O)O[C@@H]2CO)[C@H](O)[C@@H](O)[C@@H]1O here
### Response inactive

### Prompt # fetch the recorded call for COc1ccc([C@@H]2CC(=O)c3c(O)cc(O[C@@H]4O[C@H](CO[C@H]5O[C@@H](C)[C@H](O)[C@@H](O)[C@H]5O)[C@@H](O)[C@H](O)[C@H]4O)cc3O2)cc1O here
### Response inactive

### Prompt # fetch the recorded call for CN(C)CCCN1c2ccccc2CCc2ccccc21 here
### Response inactive

### Prompt # fetch the recorded call for CC(C)C[C@@H](CN)CC(=O)O here
### Response inactive

### Prompt # fetch the recorded call for CC(N=C(NC#N)Nc1ccncc1)C(C)(C)C (configuration not stated) here
### Response inactive

* * *

Kindly supply the reported normalized growth values for the records listed here.
assay: chemical genetic growth profiling, strain panel (AID 1159580);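 also: tested at 20 µM; growth read once vehicle control cultures reached saturation at 30 °C; 1 = growth at the plate median or of vehicle wells; lower values mean less growth of the strain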; settings: S. cerevisiae deletion strains, growth OD, locus YMR263W, strain SAP30, hits give low values
Among all 5,500 compounds or so, about 2,000 (36%) were called active. Roughly 18% stayed inconclusive and do not appear here. This is one part of the list.
Could you respond with only the numeric value?

### Prompt Which normalized growth value is on record for C/C1=C\CC(C)(C)/C=C/CC2(C)OC2CC1 (configuration not stated) ?
### Response 1.02

### Prompt Which normalized growth value is on record for NNC(=S)Nc1ccc2c(c1)OCCO2 ?
### Response 0.996

### Prompt Which normalized growth value is on record for CC(N)(C(=O)O)c1ccc(C(=O)O)cc1 (configuration not stated) ?
### Response 0.996

### Prompt Which normalized growth value is on record for CN(C)C1C(=O)C(C(N)=O)=C(O)C2(O)C(=O)C3=C(O)c4c(O)ccc(Cl)c4C(C)(O)C3CC12 (configuration not stated) ?
### Response 1.02

### Prompt Which normalized growth value is on record for CCCc1cc(=O)oc2cc(OCC(=O)OCC)ccc12 ?
### Response 1.03

### Prompt Which normalized growth value is on record for Nc1ccc(C(=O)O)cc1 ?
### Response 1

### Prompt Which normalized growth value is on record for COC(=O)c1ccc(S(=O)(=O)N2CCC(C(N)=O)CC2)n1C ?
### Response 0.981

* * *

Kindly supply the reported normalized growth values for the records listed here.
experiment: chemical genetic growth profiling, strain panel (AID 1159580);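 also: tested at 20 µM; growth read once vehicle control cultures reached saturation at 30 °C; 1 = growth at the plate median or of vehicle wells; lower values mean less growth of the strain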; settings: S. cerevisiae deletion strains, growth OD, locus YKL085W, strain MDH1 (second series), hits give low values
Hit rate of the full screen: of about 5,500 compounds, about 2,000 (36%) were called active. About 18% were inconclusive and are not listed. The list shows a part of the results.

### Prompt Which normalized growth value is on record for CCC(C)[C@H]1O[C@]2(C=C[C@@H]1C)C[C@@H]1C[C@@H](C/C=C(\C)[C@@H](OC3C[C@H](OC)C(O[C@H]4C[C@H](OC)[C@@H](O)[C@H](C)O4)[C@H](C)O3)[C@@H](C)/C=C/C=C3\CO[C@@H]4[C@H](O)C(C)=C[C@@H](C(=O)O1)[C@]34O)O2 (some centres not stated) ?
### Response 0.981 (inactive)

### Prompt Which normalized growth value is on record for CC(CCc1ccccc1)NCC(O)c1ccc(O)c(C(N)=O)c1 (configuration not stated) ?
### Response 1.01 (inactive)

### Prompt Which normalized growth value is on record for Oc1cccc(O)c1 ?
### Response 0.994 (inactive)

### Prompt Which normalized growth value is on record for CC(Cc1cccc(C(F)(F)F)c1)NCCOC(=O)c1ccccc1 (configuration not stated) ?
### Response 0.998 (inactive)

### Prompt Which normalized growth value is on record for CC(C)(C)NCC(O)c1ccc(O)c(CO)c1 (configuration not stated) ?
### Response 1.03 (inactive)

### Prompt Which normalized growth value is on record for CCN1CCN(C(=O)NC(C(=O)N[C@@H]2C(=O)N3[C@@H]2SC(C)(C)[C@@H]3C(=O)O)c2ccccc2)C(=O)C1=O (some centres not stated) ?
### Response 0.998 (inactive)

### Prompt Which normalized growth value is on record for OC[C@H]1O[C@@H](O[C@@H]2[C@@H](CO)O[C@](O)(CO)[C@H]2O)[C@H](O)[C@@H](O)[C@H]1O ?
### Response 0.976 (inactive)
